Data origin: ChEMBL document CHEMBL2163252

# tgt: Platelet glycoprotein 4 (Rattus norvegicus)
# Sequence (Q07969 whole entry): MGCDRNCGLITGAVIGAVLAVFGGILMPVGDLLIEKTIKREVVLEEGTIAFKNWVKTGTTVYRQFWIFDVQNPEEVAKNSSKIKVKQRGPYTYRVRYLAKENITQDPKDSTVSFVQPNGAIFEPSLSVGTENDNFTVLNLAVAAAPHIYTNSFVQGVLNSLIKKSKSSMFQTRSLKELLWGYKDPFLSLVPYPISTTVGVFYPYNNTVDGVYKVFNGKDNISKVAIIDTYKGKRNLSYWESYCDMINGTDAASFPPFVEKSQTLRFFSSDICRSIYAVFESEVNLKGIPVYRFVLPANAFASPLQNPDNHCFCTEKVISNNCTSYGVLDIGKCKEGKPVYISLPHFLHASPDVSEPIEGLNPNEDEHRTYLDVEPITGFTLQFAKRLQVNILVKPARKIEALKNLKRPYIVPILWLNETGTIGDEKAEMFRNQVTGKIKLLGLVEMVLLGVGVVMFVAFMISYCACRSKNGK
# protocolText: Displacement of photoactivatable [125I]-Tyr-Bpa-Ala-Hexarelin from CD36 in Sprague-Dawley rat cardiac membranes incubated for 60 mins by densitometry
Property: pIC50; scope: individual molecules
Scale note: pIC50 = -log10(concentration in M).

CC(C)CN(NC(=O)[C@@H](Cc1c[nH]c2ccccc12)NC(=O)[C@H](C)N)C(=O)N[C@@H](Cc1c[nH]c2ccccc12)C(=O)N[C@H](Cc1ccccc1)C(=O)N[C@@H](CCCCN)C(N)=O	5.18

Then this molecule:
Input line: Query pIC50 on Platelet glycoprotein 4 (Rattus norvegicus) for C[C@H](NC(=O)N(Cc1ccccc1)NC(=O)C(N)Cc1cnc[nH]1)C(=O)N[C@@H](Cc1c[nH]c2ccccc12)C(=O)N[C@H](Cc1ccccc1)C(=O)N[C@@H](CCCCN)C(N)=O (stereo not given in full)
Output line: 4.14
